Source of measurements: paper PMC6403271

Format: cell-based, human
Settings: human
Square brackets hold non-standard residues; d marks the D form. Peptide text beside a SMILES is read from it. N(1-naphthylmethyl)Gly = O=C(O)CNCc1cccc2ccccc12; 1Nal = N[C@@H](Cc1cccc2ccccc12)C(=O)O; 2Nal = N[C@@H](Cc1ccc2ccccc2c1)C(=O)O; d1Nal = N[C@H](Cc1cccc2ccccc12)C(=O)O; d2Nal = N[C@H](Cc1ccc2ccccc2c1)C(=O)O; Nphe = O=C(O)CNCc1ccccc1; NBuGly = CCCCNCC(=O)O; Nlys = NCCCCNCC(=O)O
hemolysis at 1 h, 150 µM vs 60%: at or above is Met, below is Not met.

Inquiry: Kindly determine if hemolysis at 1 h, 150 µM recorded for CCCCN(CC(=O)N(CC(=O)N(CC(=O)N(CC(N)=O)Cc1cccc2ccccc12)Cc1ccccc1)Cc1cccc2ccccc12)C(=O)[C@H](CCCCN)NC(=O)[C@H](CCCCN)NC(=O)[C@@H](N)CCCCN [Compound 3] (H-KKK[NBuGly][N(1-naphthylmethyl)Gly][Nphe][N(1-naphthylmethyl)Gly]-NH2; N-terminus assumed) is above or exactly 60%.
Reply text: Not met

Inquiry: Kindly determine if hemolysis at 1 h, 150 µM recorded for CCCCN(CC(=O)N[C@@H](CCCCN)C(=O)N[C@@H](CCCCN)C(=O)N[C@@H](CCCCN)C(N)=O)C(=O)CN(Cc1cccc2ccccc12)C(=O)CN(Cc1ccccc1)C(=O)CNCc1cccc2ccccc12 [Compound 4] (H-[N(1-naphthylmethyl)Gly][Nphe][N(1-naphthylmethyl)Gly][NBuGly]KKK-NH2; N-terminus assumed) is above or exactly 60%.
Reply text: Not met

Inquiry: Kindly determine if hemolysis at 1 h, 150 µM recorded for CC(C)C[C@@H](NC(=O)[C@H](CCCCN)NC(=O)[C@H](CCCCN)NC(=O)[C@@H](N)CCCCN)C(=O)N[C@H](Cc1ccc2ccccc2c1)C(=O)N[C@H](Cc1ccc(O)cc1)C(=O)N[C@H](Cc1ccc2ccccc2c1)C(N)=O [Compound 28] (H-KKK[dL][d2Nal][dY][d2Nal]-NH2; N-terminus assumed) is above or exactly 60%.
Reply text: Met

Inquiry: Kindly determine if hemolysis at 1 h, 150 µM recorded for CC(C)C[C@H](NC(=O)[C@H](CCCCN)NC(=O)[C@H](CCCCN)NC(=O)[C@@H](N)CCCCN)C(=O)N[C@@H](Cc1ccc2ccccc2c1)C(=O)N[C@@H](Cc1ccccc1)C(=O)N[C@@H](Cc1ccc2ccccc2c1)C(N)=O [Compound 9] (H-KKKL[2Nal]F[2Nal]-NH2; N-terminus assumed) is above or exactly 60%.
Reply text: Not met

Inquiry: Kindly determine if hemolysis at 1 h, 150 µM recorded for CC(C)C[C@H](NC(=O)[C@H](Cc1ccc2ccccc2c1)NC(=O)[C@H](Cc1ccccc1)NC(=O)[C@@H](N)Cc1ccc2ccccc2c1)C(=O)N[C@@H](CCCCN)C(=O)N[C@@H](CCCCN)C(=O)N[C@@H](CCCCN)C(N)=O [Compound 13] (H-[2Nal]F[2Nal]LKKK-NH2; N-terminus assumed) is above or exactly 60%.
Reply text: Not met

Inquiry: Kindly determine if hemolysis at 1 h, 150 µM recorded for CC(C)C[C@H](NC(=O)[C@H](CCCCN)NC(=O)[C@@H](N)CCCCN)C(=O)N[C@@H](CCCCN)C(=O)N[C@@H](Cc1cccc2ccccc12)C(=O)N[C@@H](Cc1ccccc1)C(=O)N[C@@H](Cc1cccc2ccccc12)C(N)=O [Compound 6] (H-KKLK[1Nal]F[1Nal]-NH2; N-terminus assumed) is above or exactly 60%.
Reply text: Met

Inquiry: Kindly determine if hemolysis at 1 h, 150 µM recorded for CC(C)C[C@H](NC(=O)CN(CCCCN)C(=O)CN(CCCCN)C(=O)CNCCCCN)C(=O)N[C@@H](Cc1ccc2ccccc2c1)C(=O)N[C@@H](Cc1ccccc1)C(=O)N[C@@H](Cc1ccc2ccccc2c1)C(N)=O [Compound 29] (H-[Nlys][Nlys][Nlys]L[2Nal]F[2Nal]-NH2; N-terminus assumed) is above or exactly 60%.
Reply text: Not met

Inquiry: Kindly determine if hemolysis at 1 h, 150 µM recorded for CC(C)C[C@H](NC(=O)[C@H](CCCCN)NC(=O)[C@H](CCCCN)NC(=O)[C@@H](N)CCCCN)C(=O)N[C@@H](Cc1cccc2ccccc12)C(=O)N[C@@H](Cc1ccccc1)C(=O)N[C@@H](Cc1cccc2ccccc12)C(N)=O [Compound 7] (H-KKKL[1Nal]F[1Nal]-NH2; N-terminus assumed) is above or exactly 60%.
Reply text: Not met

Inquiry: Kindly determine if hemolysis at 1 h, 150 µM recorded for CC(C)C[C@@H](NC(=O)[C@H](CCCCN)NC(=O)[C@@H](Cc1cccc2ccccc12)NC(=O)[C@@H](Cc1ccccc1)NC(=O)[C@H](N)Cc1cccc2ccccc12)C(=O)N[C@@H](CCCCN)C(=O)N[C@@H](CCCCN)C(N)=O [Compound 20] (H-[d1Nal][dF][d1Nal]K[dL]KK-NH2; N-terminus assumed) is above or exactly 60%.
Reply text: Not met

Inquiry: Kindly determine if hemolysis at 1 h, 150 µM recorded for CC(C)C[C@@H](NC(=O)[C@H](CCCCN)NC(=O)[C@H](CCCCN)NC(=O)[C@@H](N)CCCCN)C(=O)N[C@H](Cc1cccc2ccccc12)C(=O)N[C@H](Cc1ccccc1)C(=O)N[C@H](Cc1cccc2ccccc12)C(N)=O [Compound 15] (H-KKK[dL][d1Nal][dF][d1Nal]-NH2; N-terminus assumed) is above or exactly 60%.
Reply text: Met

Inquiry: Kindly determine if hemolysis at 1 h, 150 µM recorded for CC(C)C[C@H](NC(=O)[C@H](CCCCN)NC(=O)[C@H](Cc1ccc2ccccc2c1)NC(=O)[C@H](Cc1ccccc1)NC(=O)[C@@H](N)Cc1ccc2ccccc2c1)C(=O)N[C@@H](CCCCN)C(=O)N[C@@H](CCCCN)C(N)=O [Compound 11] (H-[2Nal]F[2Nal]KLKK-NH2; N-terminus assumed) is above or exactly 60%.
Reply text: Not met
